Assay: in vivo
Details: mouse, ip
EXPERIMENTAL_READOUT: LD50 (mg/kg)
Respond numerically; units are mg/kg and should not be typed.

Look up LD50: "COc1ccccc1OC(=O)Cc1ccc(C(=O)c2ccc(C)cc2)n1C"
1200

* * *

Assay: in vivo
Conditions: mouse, po
EXPERIMENTAL_READOUT: LD50

Look up LD50: "COc1ccccc1OC(=O)Cc1ccc(C(=O)c2ccc(C)cc2)n1C"
> 1500 mg/kg

* * *

Experiment: in vivo
Conditions: rat, po
EXPERIMENTAL_READOUT: LD50

Look up LD50: "COc1ccccc1OC(=O)Cc1ccc(C(=O)c2ccc(C)cc2)n1C"
> 1500 mg/kg

* * *

Experiment: in vivo
Settings: rat, ip
EXPERIMENTAL_READOUT: LD50
The number alone won't do; follow it with the unit.

Look up LD50: "COc1ccccc1OC(=O)Cc1ccc(C(=O)c2ccc(C)cc2)n1C"
1180 mg/kg
